- Assay method text: Apparent clearance during terminal phase in Balb/c mouse at 5 mg/kg, ip administered as single dose measured upto 24 hrs by LC-MS/MS analysis
- Format: ADME, organism-based
- Measurement conditions: Balb/c, in vivo, read-out: CLz/F (converted)
Quantity name: CL/F (mL/min/kg)
Numbers only, in mL/min/kg.

Input Cl.Cn1cc(CNCC2CCN(c3ncc(C(=O)NO)cn3)CC2)c2ccccc21 [QUISINOSTAT HYDROCHLORIDE] . Output CL/F: 462

====

- System: HepG2
- Assay method text: Cytotoxicity against human HepG2 cells assessed as reduction in cell viability incubated for 72 hrs by cell titer glo assay
- Format: cell-based
- Measurement conditions: HepG2, 72 h
pIC50: −log10 of the molar value.
Everything with pIC50 lower than 6 is NOT MET; everything else, including exactly 6, is MET.

Here's what some known entries look like.
>>> assigned_label("O=C(NO)c1cnc(N2CCC3(CCN(Cc4cccnc4)C3)CC2)nc1")
"NOT MET"
>>> assigned_label("Cl.O=C(NO)c1cnc(N2CCC3(CCN(Cc4c[nH]c5ccccc45)C3)CC2)nc1")
"MET"
>>> assigned_label("O=C(NO)c1cnc(N2CCC3(CCN(CC4CCCCC4)C3)CC2)nc1")
"NOT MET"
>>> assigned_label("O=C(NO)c1cnc(N2CCC3(CCN(Cc4ccc(-c5ccccc5)cc4)C3)CC2)nc1")
"MET"
>>> assigned_label("O=C(NO)c1cnc(N2CCC3(CCN(Cc4ccnc5ccccc45)C3)CC2)nc1")
"MET"

Does Cl.Cn1cc(CNCC2CCN(c3ncc(C(=O)NO)cn3)CC2)c2ccccc21 [QUISINOSTAT HYDROCHLORIDE] have a reported pIC50 of at least 6?
MET

Does `O=C(NO)c1cnc(N2CCC3(CCN(Cc4cc5ccccc5c5ccccc45)C3)CC2)nc1` have a reported pIC50 of at least 6?
MET

Does `O=C(NO)c1cnc(N2CCC3(CCN(Cc4ccccc4)C3)CC2)nc1` have a reported pIC50 of at least 6?
MET
